Measured pKd of individual entries
System: T1, human LAP-TGFB1 Fc fusion (human)
T1 construct: also called human LAP-TGFβ1-Fc; human LAP-TGFβ-Fc isoform 1
T1 sequence (chain, as listed by the source limits assumed): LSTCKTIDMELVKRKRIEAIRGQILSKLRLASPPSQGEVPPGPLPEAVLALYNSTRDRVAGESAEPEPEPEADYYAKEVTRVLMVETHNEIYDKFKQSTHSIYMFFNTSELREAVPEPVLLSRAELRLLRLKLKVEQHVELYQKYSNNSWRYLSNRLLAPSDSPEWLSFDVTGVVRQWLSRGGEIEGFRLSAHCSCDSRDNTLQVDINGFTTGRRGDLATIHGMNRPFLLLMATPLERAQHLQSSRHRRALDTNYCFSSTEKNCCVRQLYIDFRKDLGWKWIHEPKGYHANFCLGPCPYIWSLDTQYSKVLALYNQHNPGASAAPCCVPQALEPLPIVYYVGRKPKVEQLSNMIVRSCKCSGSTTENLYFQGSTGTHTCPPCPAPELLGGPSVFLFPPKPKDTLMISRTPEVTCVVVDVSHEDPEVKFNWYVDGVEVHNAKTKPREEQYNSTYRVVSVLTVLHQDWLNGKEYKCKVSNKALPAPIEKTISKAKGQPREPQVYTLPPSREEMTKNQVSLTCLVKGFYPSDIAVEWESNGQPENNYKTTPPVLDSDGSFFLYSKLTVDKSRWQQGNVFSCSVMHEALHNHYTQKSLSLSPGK
Method: SPR, antigen-Fc captured, Fab analyte
Interpret pKd as the negative base-10 log of the concentration measured in mol/L.

1. 57BJN (Fab, V domains shown, also called VH W33D / VL (57BJN)) VH: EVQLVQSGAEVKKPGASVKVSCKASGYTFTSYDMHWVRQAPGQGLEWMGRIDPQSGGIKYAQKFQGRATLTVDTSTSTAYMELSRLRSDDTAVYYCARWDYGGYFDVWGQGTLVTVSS VL: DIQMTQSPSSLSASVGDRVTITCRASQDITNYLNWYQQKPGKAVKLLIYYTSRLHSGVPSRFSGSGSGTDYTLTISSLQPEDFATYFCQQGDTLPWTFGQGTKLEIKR : 7.87
2. 81BJN (Fab, V domains shown, also called VH S31E W33D K59R Y104Q V107A / VL T30Y R53V (81BJN)) VH: EVQLVQSGAEVKKPGASVKVSCKASGYTFTEYDMHWVRQAPGQGLEWMGRIDPQSGGIRYAQKFQGRATLTVDTSTSTAYMELSRLRSDDTAVYYCARWDYGGQFDAWGQGTLVTVSS VL: DIQMTQSPSSLSASVGDRVTITCRASQDIYNYLNWYQQKPGKAVKLLIYYTSVLHSGVPSRFSGSGSGTDYTLTISSLQPEDFATYFCQQGDTLPWTFGQGTKLEIKR : 11.20
3. 78BJN (Fab, V domains shown, also called VH W33D K59R / VL T30Y R53N T93E (78BJN)) VH: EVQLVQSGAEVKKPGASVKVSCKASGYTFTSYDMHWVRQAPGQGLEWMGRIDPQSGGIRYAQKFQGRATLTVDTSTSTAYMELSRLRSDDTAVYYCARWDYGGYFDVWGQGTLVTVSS VL: DIQMTQSPSSLSASVGDRVTITCRASQDIYNYLNWYQQKPGKAVKLLIYYTSNLHSGVPSRFSGSGSGTDYTLTISSLQPEDFATYFCQQGDELPWTFGQGTKLEIKR : 10.15

Now let's try a different one.
Name the recorded pKd for 62BJN (Fab, V domains shown, also called VH W33D Q54Y S55G W99Y Y101H / VL T30Y (62BJN)) VH: EVQLVQSGAEVKKPGASVKVSCKASGYTFTSYDMHWVRQAPGQGLEWMGRIDPYGGGIKYAQKFQGRATLTVDTSTSTAYMELSRLRSDDTAVYYCARYDHGGYFDVWGQGTLVTVSS VL: DIQMTQSPSSLSASVGDRVTITCRASQDIYNYLNWYQQKPGKAVKLLIYYTSRLHSGVPSRFSGSGSGTDYTLTISSLQPEDFATYFCQQGDTLPWTFGQGTKLEIKR . 7.81
